target: Polyunsaturated fatty acid lipoxygenase ALOX15B (Homo sapiens); assay: qHTS Assay for Inhibitors of 15-hLO-2 (15-human lipoxygenase 2); conditions: purified 15hLO-2, xylenol orange hydroperoxide absorbance; series mostly up to 57.1 µM
The campaign covered roughly 110,000 compounds. About 610 (0.55%) were called active. Roughly 3% stayed inconclusive and do not appear here. The full list was thinned out, with actives kept by preference.
Reported property: activity change, negative = inhibition

# annotated cases, reported activity change, negative = inhibition shown
{"Molecule": "Cc1ccc(-n2c(SCC(=O)NCc3ccc4c(c3)OCO4)nnc2-c2cccnc2)c(C)c1", "activity change, negative = inhibition": "inactive"}
{"Molecule": "CC(=O)c1cccc(NC(=O)C2CCCN2S(=O)(=O)c2cccc3nsnc23)c1 (stereo unspecified)", "activity change, negative = inhibition": "inactive"}
{"Molecule": "Clc1ccc(-n2nnnc2CN2CCCCC2)cc1Cl", "activity change, negative = inhibition": "0.993% [at 11.4 µM] (inactive)"}
{"Molecule": "CCN1CCN(C(=O)/C=C\\C(=O)O)CC1", "activity change, negative = inhibition": "inactive"}
{"Molecule": "CCn1c(O)c2ccc(C(=O)N=NC(=O)c3cccnc3)cc2c1O", "activity change, negative = inhibition": "inactive"}

Prompt: Entry O=C(CN1C(=O)C2C3C=CC(C3)C2C1=O)Nc1nc(-c2ccccn2)cs1 (stereo unspecified) : reported activity change, negative = inhibition = ?
Completion: inactive

Prompt: Entry C=C(C)CSc1nnc(-c2ccc(C)cc2)n1N : reported activity change, negative = inhibition = ?
Completion: inactive

Prompt: Entry COC(=O)CSc1snnc1-c1ccc(Cl)c(Cl)c1 : reported activity change, negative = inhibition = ?
Completion: inactive

Prompt: Entry O=C(Nc1nnc(C2CC2)s1)c1ccccn1 : reported activity change, negative = inhibition = ?
Completion: inactive

Prompt: Entry COc1cccc(-c2cc(=O)c3cc(NC(=O)c4ccc(C)cc4)ccc3[nH]2)c1 : reported activity change, negative = inhibition = ?
Completion: -28.3% [at 0.0915 µM] (inactive)

Prompt: Entry COc1ccc(-c2c(C)cc3oc(=O)cc(-c4ccccc4)c3c2C)cc1OC : reported activity change, negative = inhibition = ?
Completion: -3.53% [at 0.0915 µM] (inactive)

###

molecular target: Polyunsaturated fatty acid lipoxygenase ALOX15B (Homo sapiens) (UniProt O15296); experiment: qHTS Assay for Inhibitors of 15-hLO-2 (15-human lipoxygenase 2); details: purified 15hLO-2, xylenol orange hydroperoxide absorbance; series mostly up to 57.1 µM; also: % is scaled to controls: 0 for no effect and ±100 for the full control effect; nearly all actives have a fitted effect of over 60% in size
Sequence (O15296 whole entry, looked up): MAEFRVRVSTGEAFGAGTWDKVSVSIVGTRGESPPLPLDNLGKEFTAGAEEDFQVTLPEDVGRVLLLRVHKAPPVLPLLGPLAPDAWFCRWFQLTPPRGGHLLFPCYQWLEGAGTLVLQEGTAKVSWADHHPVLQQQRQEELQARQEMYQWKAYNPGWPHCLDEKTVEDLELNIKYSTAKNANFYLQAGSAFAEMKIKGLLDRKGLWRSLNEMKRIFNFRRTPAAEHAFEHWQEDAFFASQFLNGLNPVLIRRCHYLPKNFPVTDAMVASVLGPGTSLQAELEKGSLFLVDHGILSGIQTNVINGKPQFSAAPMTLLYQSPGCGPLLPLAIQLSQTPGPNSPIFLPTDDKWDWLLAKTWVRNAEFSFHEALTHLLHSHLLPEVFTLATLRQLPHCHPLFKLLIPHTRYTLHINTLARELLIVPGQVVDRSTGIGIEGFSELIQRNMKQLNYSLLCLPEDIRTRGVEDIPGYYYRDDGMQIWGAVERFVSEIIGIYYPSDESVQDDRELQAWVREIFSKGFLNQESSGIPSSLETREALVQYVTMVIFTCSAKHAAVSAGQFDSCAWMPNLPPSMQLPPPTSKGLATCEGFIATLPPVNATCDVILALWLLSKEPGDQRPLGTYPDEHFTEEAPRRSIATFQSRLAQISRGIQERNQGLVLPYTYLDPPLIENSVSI
Hit rate of the full screen: of about 110,000 compounds, about 610 (0.55%) were called active. About 3% were inconclusive and are not listed. This excerpt belongs to a sample that is enriched for actives.
Reported property: activity change, negative = inhibition

# annotated cases, reported activity change, negative = inhibition shown
{"Compound": "O=C(Oc1ccccc1)Oc1ccc2c(c1)oc(=O)c1ccccc12", "activity change, negative = inhibition": "inactive"}
{"Compound": "Cc1cccc([C@H]2[C@@H]3C=CC[C@@H](C)[C@@H]3C(=O)N2Cc2ccccc2)c1", "activity change, negative = inhibition": "-6.63% [at 0.0915 µM] (inactive)"}
{"Compound": "CN(C(=O)CSc1nc(C2CC2)nc2ccccc12)c1nc(-c2ccccc2)cs1", "activity change, negative = inhibition": "inactive"}
{"Compound": "CC(=O)CC(c1ccccc1)C1C(=O)Oc2ccccc2C1=O (stereo unspecified)", "activity change, negative = inhibition": "12.2% [at 0.0915 µM] (inactive)"}
{"Compound": "FC(F)(F)c1cnc(Oc2ccccc2-c2nnc(-c3ccc(Cl)cc3)o2)c(Cl)c1", "activity change, negative = inhibition": "inactive"}

Prompt: Entry O=C(O)CCC(=O)O : reported activity change, negative = inhibition = ?
Completion: 15.2% [at 0.0915 µM] (inactive)

Prompt: Entry Cc1c(Br)cc(C(=O)N2CCCCCC2)c(C)c1C : reported activity change, negative = inhibition = ?
Completion: inactive

Prompt: Entry O=C(Nc1cc(C(F)(F)F)ccc1Cl)c1cc2nc3c(c(C(F)(F)F)n2n1)CCCC3 : reported activity change, negative = inhibition = ?
Completion: inactive

Prompt: Entry CCOC(=O)Cn1c(-c2cccnc2Cl)nc2ccccc21 : reported activity change, negative = inhibition = ?
Completion: inactive

Prompt: Entry COc1ccc(C(=O)NNC(=O)c2cnccn2)cc1[N+](=O)[O-] : reported activity change, negative = inhibition = ?
Completion: inactive

Prompt: Entry CCOC(=O)C1=C(C)Nc2sc(C(=O)c3ccc(Br)cc3)c(N)c2C1c1ccc(C(=O)OC)cc1 (stereo unspecified) : reported activity change, negative = inhibition = ?
Completion: inactive

###

target: Polyunsaturated fatty acid lipoxygenase ALOX15B (Homo sapiens); assay: qHTS Assay for Inhibitors of 15-hLO-2 (15-human lipoxygenase 2); settings: purified 15hLO-2, xylenol orange hydroperoxide absorbance; series mostly up to 57.1 µM; also: % is scaled to controls: 0 for no effect and ±100 for the full control effect; nearly all actives have a fitted effect of over 60% in size
Screen size: about 110,000 compounds; about 610 (0.55%) were called active. About 3% were inconclusive and are not listed. This excerpt belongs to a sample that is enriched for actives.
Reported property: activity change, negative = inhibition

# annotated cases, reported activity change, negative = inhibition shown
{"Substance smiles": "S=C(NCc1cccs1)Nc1ccc(Cl)cc1", "Measured value": "inactive"}
{"Substance smiles": "COc1ccc(C)cc1NC(=O)CCS(=O)(=O)c1cccc2nonc12", "Measured value": "inactive"}
{"Substance smiles": "COc1ccccc1N=C(C)C1=C(O)COC1=O", "Measured value": "inactive"}
{"Substance smiles": "Cc1ccc2nc(CC(=O)c3ccc4ccccc4c3)c(=O)[nH]c2c1", "Measured value": "-6.79% [at 11.4 µM] (inactive)"}
{"Substance smiles": "O=C(NCc1ccc2c(c1)OCO2)C12CC3CC(CC(C3)C1)C2", "Measured value": "inactive"}

The record that follows has no activity change, negative = inhibition shown yet.
Prompt: Entry O=C(Nc1ccc(Sc2ccc(Br)cc2)cc1)c1ccco1 : reported activity change, negative = inhibition = ?
Completion: inactive

###

target: Polyunsaturated fatty acid lipoxygenase ALOX15B (Homo sapiens) (UniProt O15296); assay: qHTS Assay for Inhibitors of 15-hLO-2 (15-human lipoxygenase 2); settings: purified 15hLO-2, xylenol orange hydroperoxide absorbance; series mostly up to 57.1 µM; also: % is scaled to controls: 0 for no effect and ±100 for the full control effect; nearly all actives have a fitted effect of over 60% in size
In all, about 110,000 compounds went through this assay and about 610 (0.55%) were called active. Inconclusive results (about 3%) are left out. The sample as a whole holds a higher share of actives than the screen did.
Reported property: activity change, negative = inhibition

{"Compound": "COc1cc(/C=N/O)cc(Br)c1OCc1cccc(Cl)c1", "activity change, negative = inhibition": "inactive"}
{"Compound": "COc1cc(OC)c2c(c1)OC(=O)CC2c1cc(OC)c(OC)c(OC)c1 (configuration not stated)", "activity change, negative = inhibition": "-2.71% [at 0.0915 µM] (inactive)"}
{"Compound": "Cc1cccc(-c2cc(=O)c3cc(C)ccc3o2)c1", "activity change, negative = inhibition": "inactive"}
{"Compound": "COc1ccc(C(=O)Nc2ccc(S(=O)(=O)NC(C)C)cc2)cc1", "activity change, negative = inhibition": "inactive"}
{"Compound": "CCOn1c(SC(C)C)nc2ccccc2c1=O", "activity change, negative = inhibition": "inactive"}
{"Compound": "CCOC(=O)C1=C(C)c2ccccc2OC1C(=O)OCC (configuration not stated)", "activity change, negative = inhibition": "-11.3% [at 0.0915 µM] (inactive)"}

Prompt: Entry Cc1cc2oc(=O)cc(-c3ccccc3)c2c(C)c1/C=C/c1ccc(F)cc1 : reported activity change, negative = inhibition = ?
Completion: -8.43% [at 0.0915 µM] (inactive)

Prompt: Entry Cc1ccc(CC2(O)CCN(CCOc3ccc(O)cc3)CC2)cc1 : reported activity change, negative = inhibition = ?
Completion: 15.1% [at 0.0915 µM] (inactive)

Prompt: Entry CCCCCCSc1nsc(N)n1 : reported activity change, negative = inhibition = ?
Completion: inactive

Prompt: Entry COc1cccc(OC)c1C(=O)Nc1ccc(N2CCCCC2)cc1 : reported activity change, negative = inhibition = ?
Completion: inactive

Prompt: Entry CCCCCCCCCCCCCCCCO : reported activity change, negative = inhibition = ?
Completion: 14.3% [at 0.0915 µM] (inactive)

Prompt: Entry Cc1ccc(S(=O)(=O)N2CCC(=O)N([C@H](COCc3ccccc3)Cc3ccccc3)CC2)cc1 : reported activity change, negative = inhibition = ?
Completion: 6.39% [at 0.0915 µM] (inactive)

###

target: Polyunsaturated fatty acid lipoxygenase ALOX15B (Homo sapiens) (UniProt O15296); assay: qHTS Assay for Inhibitors of 15-hLO-2 (15-human lipoxygenase 2); details: purified 15hLO-2, xylenol orange hydroperoxide absorbance; series mostly up to 57.1 µM; also: % is scaled to controls: 0 for no effect and ±100 for the full control effect; nearly all actives have a fitted effect of over 60% in size
Hit rate of the full screen: of about 110,000 compounds, about 610 (0.55%) were called active. About 3% were inconclusive and are not listed. Only a selection was taken, and actives are over-represented in it overall.
Reported property: activity change, negative = inhibition

{"Molecule": "CC1=C(C/C=C(\\C)CCCC(C)CCCC(C)CCCC(C)C)C(=O)c2ccccc2C1=O (configuration not stated)", "activity change, negative = inhibition": "-19.6% [at 0.0915 µM] (inactive)"}
{"Molecule": "Cc1ccc(-c2csc(NC(=O)c3cccs3)n2)cc1", "activity change, negative = inhibition": "inactive"}
{"Molecule": "Cc1ccc(CNC(=O)CCNS(=O)(=O)c2cccc3nonc23)cc1", "activity change, negative = inhibition": "inactive"}
{"Molecule": "CCn1c(-c2ccoc2C)n[nH]c1=S", "activity change, negative = inhibition": "inactive"}

Prompt: Fill in the recorded activity change, negative = inhibition for this molecule, with Polyunsaturated fatty acid lipoxygenase ALOX15B (Homo sapiens) (UniProt O15296) as test system: COc1cc(C(=O)N2CCOCC2)cc(OC)c1OC
Completion: 5.48% [at 0.0915 µM] (inactive)

Prompt: Fill in the recorded activity change, negative = inhibition for this molecule, with Polyunsaturated fatty acid lipoxygenase ALOX15B (Homo sapiens) (UniProt O15296) as test system: CC(C)(CNC(=O)c1cc(=O)[nH]c2ccccc12)N1CCOCC1
Completion: inactive

Prompt: Fill in the recorded activity change, negative = inhibition for this molecule, with Polyunsaturated fatty acid lipoxygenase ALOX15B (Homo sapiens) (UniProt O15296) as test system: COc1ccc(Oc2c(Cl)cnn(-c3ccccc3)c2=O)cc1
Completion: inactive

src = PubChem BioAssay AID881
